- system: Glycogen synthase kinase-3 beta (Homo sapiens, UniProt P49841);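 note: value comes from a broad kinome profiling panel, with GSK3B as the panel member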
- Sequence (P49841 whole entry): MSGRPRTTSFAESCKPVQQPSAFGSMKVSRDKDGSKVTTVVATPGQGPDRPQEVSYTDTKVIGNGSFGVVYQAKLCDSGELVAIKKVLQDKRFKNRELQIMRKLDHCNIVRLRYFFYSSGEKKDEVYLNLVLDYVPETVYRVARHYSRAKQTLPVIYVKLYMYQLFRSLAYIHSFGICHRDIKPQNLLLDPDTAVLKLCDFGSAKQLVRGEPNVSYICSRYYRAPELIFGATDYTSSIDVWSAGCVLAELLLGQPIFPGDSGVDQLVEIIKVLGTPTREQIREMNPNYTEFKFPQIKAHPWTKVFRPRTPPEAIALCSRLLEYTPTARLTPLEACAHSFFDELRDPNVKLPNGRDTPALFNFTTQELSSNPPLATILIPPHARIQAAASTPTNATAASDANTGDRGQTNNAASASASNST
- Assay type: functional
The source made the active and inactive calls.
Quick reference for Ki among some compounds
parameter: Ki

>>> print(df.to_string())
                                   compound  observedmeasurement
0  NC1CCC(Nc2nccc(-c3c[nH]c4ncccc34)n2)CC1 (centres undefined)      200 nM (active)
1  CC(C)(O)CNc1cc(-c2c[nH]c3ncccc23)cc(Cl)n1      316 nM (active)
2              OCc1cc(-c2ccc3[nH]ncc3c2)on1     3160 nM (active)
3        CC(C)(O)c1cn(-c2ccc3[nH]ncc3c2)nn1    12600 nM (active)
